# System: RPTEC
# method.summary: Antiinflammatory activity against LPS-induced human RPTEC cells assessed as reduction in nitrite level at 26 uM incubated for 24 hrs by microplate reader analysis relative to control
# Format: functional
# Design: scale not given: the % may be the effect or the level left
Provide the recorded Activity for the entries that follow.
Numbers only, in %.

molecule=CC1(C)Oc2ccc(CC3=C(c4ccc(O)cc4)C(=O)OC3=O)cc2C[C@@H]1O experimental_endpoint=Activity scale_unit=% number=45
molecule=CC1(C)Oc2ccc(CC3=C(c4ccc(O)cc4)C(=O)NC3=O)cc2C[C@@H]1O experimental_endpoint=Activity scale_unit=% number=24
molecule="CC1(C)Oc2ccc(CC3=C(c4ccc(O)cc4)C(=O)NC3=O)cc2CC1O (racemic)" experimental_endpoint=Activity scale_unit=% number=45

# input for lookup
Look up Activity for this molecule: CC1(C)Oc2ccc(CC3=C(c4ccc(O)cc4)C(=O)OC3=O)cc2CC1O (centres undefined)
45

###

Provide the recorded Activity for the entries that follow.
# Test system: RPTEC
# method.summary: Antiinflammatory activity in LPS-induced human RPTEC cells assessed as decrease in IL-1beta gene expression at 26 uM incubated for 24 hrs by qPCR analysis relative to control
# Type: functional
# Parameters: scale not given: the % may be the effect or the level left

Worked examples follow.
compound=CC1(C)Oc2ccc(CC3=C(c4ccc(O)cc4)C(=O)NC3=O)cc2C[C@@H]1O result=52%
compound="CC1(C)Oc2ccc(CC3=C(c4ccc(O)cc4)C(=O)OC3=O)cc2CC1O (centres undefined)" result=61%
compound=CC1(C)Oc2ccc(CC3=C(c4ccc(O)cc4)C(=O)OC3=O)cc2C[C@@H]1O result=52%

Look up Activity for this compound: CC1(C)Oc2ccc(CC3=C(c4ccc(O)cc4)C(=O)NC3=O)cc2CC1O (racemic)
52%
